system: T1, human CD28, full-length, expressed on transfected Expi293 cells (human, UniProt P10747 19-220)
T1 construct: whole, on cells
assay-comment: flow cytometry, 100 nM, Expi293 cells with human CD28
For each entry below, report its MFI value.
Answer by giving the amount and then stating its unit.

Prompt: I would be grateful if you could share the reported MFI for variant ICOSL IgV-Fc fusion N52R/N57L/Q100S (Fc fusion) DTQEKEVRAMVGSDVELSCACPEGSRFDLNDVYVYWQTSESKTVVTYHIPQRSSLELVDSRYRNRALMSPAGMLRGDFSLRLFNVTPQDEQKFHCLVLSSSLGFQEVLSVEVTLHVAANFSVGSGGGGSEPKSSDKTHTCPPCPAPEAEGAPSVFLFPPKPKDTLMISRTPEVTCVVVDVSHEDPEVKFNWYVDGVEVHNAKTKPREEQYNSTYRVVSVLTVLHQDWLNGKEYKCKVSNKALPAPIEKTISKAKGQPREPQVYTLPPSREEMTKNQVSLTCLVKGFYPSDIAVEWESNGQPENNYKTTPPVLDSDGSFFLYSKLTVDKSRWQQGNVFSCSVMHEALHNHYTQKSLSLSPG .
Response: 112000 MFI

Prompt: I would be grateful if you could share the reported MFI for variant ICOSL IgV-Fc fusion N52A/N57F/Q100S (Fc fusion) DTQEKEVRAMVGSDVELSCACPEGSRFDLNDVYVYWQTSESKTVVTYHIPQASSLEFVDSRYRNRALMSPAGMLRGDFSLRLFNVTPQDEQKFHCLVLSSSLGFQEVLSVEVTLHVAANFSVGSGGGGSEPKSSDKTHTCPPCPAPEAEGAPSVFLFPPKPKDTLMISRTPEVTCVVVDVSHEDPEVKFNWYVDGVEVHNAKTKPREEQYNSTYRVVSVLTVLHQDWLNGKEYKCKVSNKALPAPIEKTISKAKGQPREPQVYTLPPSREEMTKNQVSLTCLVKGFYPSDIAVEWESNGQPENNYKTTPPVLDSDGSFFLYSKLTVDKSRWQQGNVFSCSVMHEALHNHYTQKSLSLSPG .
Response: 157000 MFI
